system: ACHN renal; test: NCI tumour cell line growth inhibition, 48 h
Catalogue of TGI readings, one per entry.
assay metric: TGI

molecule	experimental value
CCCCCCCCCCCCOCC1(COCCCCCCCCCCCC)COC(c2ccc(N)cc2)OC1	> 100 µM
CC(C)(C)OC(=O)CCCCCNC(=O)CCCCCNC(=O)CCC(CN(CC(=O)OCc1ccccc1)CC(=O)OCc1ccccc1)N(CC(=O)OCc1ccccc1)CC(=O)OCc1ccccc1 (centres undefined)	> 100 µM
Cn1cnnc1[S-].[Au+].c1ccc([PH+](c2ccccc2)c2ccccc2)cc1	3.16 µM
COc1ccccc1C(=O)N(Cc1ccccc1)c1ccc(Cl)c(C(=O)OC(C)C)c1	96.8 µM
COc1cccc(C23CCN(C)C(CC(O)C2)C3)c1OC (centres undefined)	> 100 µM
CCOc1ccc2cc(-c3nn(CC4CCNCC4)c4ncnc(N)c34)ccc2c1	29.8 µM
COc1ccc(/C=C\c2cc(OC)c(OC)c(OC)c2)cc1	> 100 µM
COc1cc2c3c(n(CCCNCCCNCCCN)c(=O)c2cc1OC)-c1cc2c(cc1C3=O)OCO2	> 100 µM
NC(=O)[N+](=CC(=S)Nc1ccccc1Cl)C(N)=O	> 100 µM

###

system: HCT-116 colon; experiment: NCI tumour cell line growth inhibition, 48 h; in the data active = GI50 below about 0.43 µM; inactive = the rest
Classes used: active, inactive

> print(dat)
                                    compound  group.label
 1  N#Cc1cc(S(=O)(=O)Nc2nc3cc(Cl)ccc3o2)c(SCc2ccccc2)cc1Cl     inactive
 2  O=CN1N=C(c2cccc(Nc3ccnc4cc(Cl)ccc34)c2)CC1c1ccc(Cl)cc1 (stereo not given)     inactive
 3                 N#[N+]c1ccc(Nc2ccccc2)cc1     inactive
 4  COc1ccc2c(c1OC)O/C(=C\c1ncc([N+](=O)[O-])n1C)C2=O     inactive
 5  CCOC(=O)c1c(NC(=O)c2ccc(Cl)cc2)sc2c(CN(C)C)c(O)ccc12     inactive
 6  COc1ccc2c(c1)C(=O)c1c-2c(OCCN(C)C)nc2cc(OC)c(OC)cc12     inactive
 7  CC1(C)N=C(N)N=C(N)N1c1cccc(CCc2ccccc2)c1       active
 8  COc1ccc(-c2csc(Nc3cccc(-c4csc(C)n4)c3)n2)cc1     inactive
 9  CCOC(=O)/C(=C\c1ccc2ccccc2c1)P(=O)(OCC)OCC     inactive
10  COc1cc2cc(Oc3cccc(NC(=O)Nc4cc(C(F)(F)F)cc(C(F)(F)F)c4)c3)c(C)nc2cc1OC     inactive

###

test system: HT29 colon; test: NCI tumour cell line growth inhibition, 48 h
If the reported TGI equals or exceeds 6 µM, assign Criterion met. If not, assign Criterion not met.

> print(dat)
                                    compound        group.label
 1  COc1ccc(C(O)c2cc3c(N)c(C(=O)Nc4cccc(Br)c4C)sc3nc2C)cc1 (stereo unspecified)  Criterion not met
 2  OCC(O)C(O)C(O)c1nn(-c2ccc(F)cc2)c2nc3cc(Cl)c(Cl)cc3nc12 (stereo unspecified)      Criterion met
 3  CC1OC(OC2C(O)C(O)C(O)C(O)C2O)C(N)CC1N=C(N)C(=O)O (stereo unspecified)      Criterion met
 4  COc1ccc(-c2cc(/C=C/C(=O)c3ccc(N)cc3)[nH]n2)cc1      Criterion met
 5  CN1CCc2ccccc2C(C(=O)c2ccc3c(c2)OCO3)C1=O (stereo unspecified)      Criterion met
 6             COc1cc2c(c(OC)c1OC)C(=O)NCCC2      Criterion met
 7  CN(C)c1ccc(-c2ccc(-c3ccc(C(=N)N)cn3)o2)cc1  Criterion not met
 8              O=CNc1ccccc1OCCOc1ccccc1NC=O      Criterion met
 9  CN1CCC(C(O)(c2ccccc2)c2ccc(Br)cc2)CC1 (stereo unspecified)      Criterion met
10  O=C1OC([C@H](O)c2cccnc2)c2ccccc21 (stereo partly specified)      Criterion met
11  O=c1oc2c3ccc4ccccc4c3n(CCN3CCCCC3)c2c2ccccc12      Criterion met
